Each recorded value in this set is attributed to PubChem BioAssay (NCI).

- Tested on: MCF7 breast
- protocol: NCI-60 one-dose screen, 48 h (100 = growth as untreated, 0 = no growth, -100 = all killed)
- test_parameters: 10 µM
The panel holds about 83,000 compounds, 20% with a hit somewhere; the sample as a whole holds those more often.
Decision: growth compared against 80%; not below it gives met, below it gives not met.

Query: Please check the record COc1c(O)cc2oc3cc(O)c(CC=C(C)C)c(O)c3c(=O)c2c1CC=C(C)C and state if its growth is at or above 80%.
Reply: not met

---

- Test system: SW-620 colon
- protocol: NCI-60 one-dose screen, 48 h (100 = growth as untreated, 0 = no growth, -100 = all killed)
- test_parameters: 10 µM
The panel holds about 83,000 compounds, 20% with a hit somewhere; the sample as a whole holds those more often.
metric_name: growth (%)
Answers are plain numbers, in %.

Consider the worked cases shown below.
COc1cccc2c1C(=O)c1c(O)c3c(c(O)c1C2=O)C[C@@](O)(C(=O)CO)C[C@@H]3OC1CC(N)C(O)C(C)O1 (stereo partly drawn): 1.93
Cc1cc(O)c(C(C)C)cc1Cl: 105
NNc1ccc2ccccc2c1: 96.1

Hey, quick one: what's growth for each of these?
1. CCCC1CCC(=C2C(=O)CCC2=O)O1 (stereo not drawn)
2. OCC(O)C(O)C(O)C(/C=N/Nc1ccccc1)=N/Nc1ccccc1 (stereo not drawn)
3. CC(C)(C)CC(C)(C)c1ccc(OCCO)cc1
4. N=S(c1ccccc1[N+](=O)[O-])c1ccccc1[N+](=O)[O-]

Reply:
[105, 88.3, 109, 17.9]

List growth for every entry below, keeping the order given.
1. O=[N+]([O-])C1=C(c2ccccc2)SC=C(c2ccccc2)S1
2. CC[N+](CC)=c1ccc2nc3c(cc(N)c4ccccc43)oc-2c1
3. Clc1cc(Cl)c(Cl)nn1
4. CS(=O)(=O)OC1CC(n2ccc(=O)[nH]c2=O)OC1COC(c1ccccc1)(c1ccccc1)c1ccccc1 (stereo not drawn)
5. CCCCCCCCCCSC(=N)N
6. NC1=C(Cl)C(=O)c2ccccc2C1=O
7. NC(=O)SCC(=O)NNc1ccccc1
8. O=c1ccn(C2CC(O)C(COC(c3ccccc3)(c3ccccc3)c3ccccc3)O2)c(=O)[nH]1 (stereo not drawn)

Reply:
1: 62.5; 2: -25.2; 3: 107; 4: 105; 5: -5.44; 6: 86.8; 7: 87.5; 8: 99.4

For every listed record, write down its growth.
1. CN1CCN(CCCN2c3ccccc3Sc3ccc(C(F)(F)F)cc32)CC1
2. NNc1c2ccccc2nc2ccccc12
3. O=C(/C=C/c1ccccn1)c1ccccc1
4. CC(=O)Nc1cc(C)ccc1C

Reply:
34.3
43.9
-51.3
96.4

I would be grateful if you could provide growth for each of the following entries.
1. CC1=CC(C)=Nc2ccc(Cl)cc2N1
2. CCN1/C(=C/C=C/C=C/c2sc3ccccc3[n+]2CC)Sc2ccccc21
3. Clc1ccc(/C=C/c2ccccn2)c(Cl)c1
4. O=C1NC(=O)c2cc([N+](=O)[O-])ccc21

Reply:
1: 98.8; 2: -31.1; 3: 86; 4: 103
